Reference source: PubChem BioAssay

Assay: HepG2 cytotoxicity, primary screen, cytotoxicity control for P. falciparum antimalarial project, cell-based, ATP luminescence (AID 2303);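 further: 0% = DMSO wells and 100% = digitonin-killed cells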
Settings: HepG2 viability, 24-48 h, at 10 µM, active compounds read high
I'd appreciate it if you could label each record using inhibition and these ranges: low (below 10%), medium (10% to below 30%), high (30% or more)

1. COc1c(C2CCN(CCCCNC(=O)c3ccc(-c4ccc(Cl)cc4)cc3)CC2)ccc2c1C(C)(C)CCC2(C)C :: high
2. Oc1ccc2[nH]c(-c3cccc(F)c3)nc2c1CN1CCC(O)(c2ccccc2)CC1 :: medium
3. CN(C)CCNCc1ccc(-c2ccc(-c3nc4ccc(F)cc4[nH]3)cc2)cc1 :: low
4. Nc1nc(N)c2c(ccc3c2ccn3Cc2ccc(Cl)cc2)n1 :: high
5. Cc1ccccc1C1CCN(C2CCC(NC(=O)c3ccc(-c4ccccc4)s3)CC2)CC1 (stereo not given) :: medium
6. Cc1nc(N)nc(N)c1CCCOc1ccccc1Br :: high
7. CNc1ccc(CNCc2cccc(-c3ccc(-c4nc5ccccc5[nH]4)s3)c2)cc1 :: medium
8. CO/C(=C\C=C\c1cc2cc(Cl)c(Cl)cc2[nH]1)C(=O)NCCCNCCN(C)c1ccccc1 :: high
9. O=C(CCNc1ccnc(NCCc2ccc(F)cc2)n1)Nc1ccccc1 :: low
10. CNC(=O)CC(=O)NCCc1ccc(Cl)cc1 :: low
11. CC1(C)S(=O)(=O)CC(O)CS1(=O)=O :: low
12. O=C(NCCCCCN1CCC(c2c[nH]c3ccccc23)CC1)Nc1cccc(C(F)(F)F)c1 :: high
13. C=CCn1c(Cc2ccccc2)nnc1Sc1ccc(C#N)c([N+](=O)[O-])c1 :: low
14. Cc1nc2nc(N)nc(N)c2c(C)c1Cc1cccc(F)c1 :: high
15. COc1ccc2ncc(C)c(CCN3CCC(NCc4ccc5c(n4)NC(=O)CS5)CC3)c2c1 :: medium
16. CC(C)(CN1CCCC1)CN(Cc1ccc(-c2ccc(C(F)(F)F)cc2)cc1)C(=O)Cn1c(CCc2cccc(F)c2F)nc(=O)c2ccccc21 :: high
17. COC(=O)c1sc(-c2ccc(Cl)cc2)cc1N(CCCN1CCC(N2CCCCC2)CC1)S(=O)(=O)c1ccc(C)cc1 :: medium
18. Cc1cnc(Nc2cccnc2)nc1Nc1ccccc1C(=O)NC(C)C :: low
19. O=C(/C=C/c1ccc(Cl)c(Cl)c1)NCCCCCN1CCC(NC(=O)Nc2ccccc2F)CC1 :: medium

###

Experiment: antimalarial activity against Dd2 strain (AID 2302);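 further: 0% = DMSO untreated growth and 100% = chloroquine plus artemisinin killed control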
Details: P. falciparum Dd2 in RBCs, LDH growth readout, 72 h; at 2 µM; active compounds read high
Consider the following molecules and their measured growth inhibition readings.
Measurement type: growth inhibition (%)

1) FC(F)(F)c1ccc(COc2cc(Cl)ccc2Cn2ccnc2)cc1 :: 0
2) COc1ccc(CC(=O)NC(CCCN2CCC3(CC2)OCc2ccccc23)c2ccc(Cl)c(Cl)c2)cc1 (stereo not given) :: 53
3) Cc1cc(N[C@@H](Cc2ccccc2)C(=O)NC2CCCC2)nc(NCCOc2ccccc2)n1 :: 48
4) O=C(Nc1ccc(OC(F)(F)F)cc1)Nc1ccc([N+](=O)[O-])cc1 :: 100
5) COc1ccc(CNCc2cccc(-c3ccc(-c4nc5ccccc5[nH]4)cc3)c2)cc1 :: 60
6) O=C(Cc1cccc(O)c1)Nc1ccc(-c2cccc(-c3nc4ccc(C(F)(F)F)cc4[nH]3)c2)cc1 :: 1
7) Oc1ccc2ccccc2c1CNC1CCCCCC1 :: 33
8) CN(C)Cc1cc(Nc2ccnc3cc(Cl)ccc23)ccc1O :: 100
9) Cc1cc(Nc2cccc(Cl)c2)nc2ccc(NC(=O)c3ccc(=O)[nH]c3)cc12 :: 23
10) O=C(c1cnn(-c2ccccc2)c1C(F)(F)F)N1CCN(c2ccnc3cc(Cl)ccc23)CC1 :: 94
11) COc1ccc(NC(=O)c2ccc(Br)c(C)c2)cc1N1CCN(CCCCc2ccccc2)CC1 :: 17
12) CCC(C)NS(=O)(=O)c1ccc2nc(Nc3ccc(C)cc3)n(C3CCCCC3C)c2c1 (stereo not given) :: 99
13) COCCn1c(-c2cccc(Cl)c2)nn(-c2ccc([N+](=O)[O-])cc2C#N)c1=S :: 100
14) CN(CCCCNC(=O)c1ccc(-c2ccccc2)cc1)C1CCc2c(O)cccc2C1 (stereo not given) :: 21
15) OC(CNCc1ccccc1OCc1ccccc1)c1cccc(I)c1 (stereo not given) :: 100
16) N#Cc1ccc(-c2ccc(C(=O)NCCCCN3CCC(c4ccc5c(c4OCC(N)=O)CCCC5)CC3)nc2)cc1 :: 97
17) Cc1ccc(O)cc1Nc1ccnc2ccc(-c3cccc(CN(C)C)c3)cc12 :: 99
18) COc1cc2nc(Nc3ccc(C)cc3)nc(Nc3ccc(C)cc3)c2cc1OC :: 100
19) Cc1ccc(Cc2cnc(NCCSCc3ccc(CN4CCOCC4)o3)[nH]c2=O)cn1 :: -3
20) CN(C)CCCc1cc2c(cc1Cl)CCN2C(=O)Nc1ccc(-c2ccncc2)c2ccccc12 :: -2

###

Experiment: HepG2 cytotoxicity, primary screen, cytotoxicity control for P. falciparum antimalarial project, cell-based, ATP luminescence (AID 2303);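 further: 0% = DMSO wells and 100% = digitonin-killed cells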
Conditions: HepG2 viability, 24-48 h, at 10 µM, active compounds read high
Consider the following compounds and their measured inhibition readings.
Measurement type: inhibition (%)

1. CCN(CC)CCN(Cc1ccc(-c2ccc(Br)cc2)cc1)C(=O)Cn1c(CCc2cccc(F)c2F)nc(=O)c2ccccc21 :: 37
2. O=C(O[C@@H]1CN[C@H](C#Cc2cc3c(Nc4ccc5c(cnn5Cc5ccccc5)c4)ncnc3s2)C1)N1CCCC1 :: 8
3. O=S1C(Cl)=C(c2ccc(Cl)cc2)c2ccc(Cl)cc21 (stereo not given) :: 33
4. COc1ccc(CN2CCC(Oc3cccc(NC(=O)c4ccc(C(F)(F)F)cc4)c3)CC2)cc1 :: 35
5. Cc1cc(N[C@@H](CC(C)C)C(=O)NCCOc2ccccc2)nc(NCCOc2ccccc2)n1 :: -4

###

Test: HepG2 cytotoxicity, primary screen, cytotoxicity control for P. falciparum antimalarial project, cell-based, ATP luminescence (AID 2303);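 further: 0% = DMSO wells and 100% = digitonin-killed cells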
Details: HepG2 viability, 24-48 h, at 10 µM, active compounds read high
Response field label takes criterion met when inhibition is strictly below 60% and criterion not met in all other cases.

1. CC(=O)c1ccc(NC(=O)C2c3ccccc3C(=O)N(CC(C)C)C2c2cccs2)cc1 (stereo not given) :: criterion met
2. CC(=O)Nc1ccc(CN(Cc2ccc(C)cc2)Cc2cccc(Oc3ccccc3)c2)cc1 :: criterion met
3. N[C@@H](CCNC1CCN(c2cccc(C(F)(F)F)c2)CC1)Cc1ccc(F)c(F)c1 :: criterion not met
4. COc1cccc2cc(C(=O)N[C@@H](CC(C)C)C(=O)NC3CC[C@@H](C)N(C(=O)Nc4ccncc4)CC3=O)oc12 (stereo not given in full) :: criterion met

###

Target: L-lactate dehydrogenase (Plasmodium falciparum (isolate CDC / Honduras))
Test: PfLDH activity inhibition – cell lysate, 3D7 strain, counter-screen for P. falciparum growth inhibition project (AID 2304);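 further: 0% = vehicle and 100% = reference inhibitor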
Conditions: P. falciparum 3D7 crude extract, LDH APAD/NBT absorbance; at 2 µM; active compounds read high
Consider the following molecules and their measured inhibition readings.
Measurement type: inhibition (%)

1. CCCCCN1CCC(NS(=O)(=O)c2cccc(C(=O)Nc3ccc(C(F)(F)F)cc3)c2)C1 (centres undefined) :: -3
2. CC1=C(C(=O)OCCOCc2ccccc2)C(c2ccccc2C(F)(F)F)C(C(=O)OCCOCc2ccccc2)=C(C)N1 :: 3
3. Cn1c(N)c(C(=O)CSc2ncc(-c3ccc(F)cc3)n2Cc2ccccc2)c(=O)n(C)c1=O :: 1
4. CCCCCCC(C)c1cc(OCCN(CC)CC)c2c(c1)OC(C)(C)C=C2c1ccncc1 (centres undefined) :: -1
5. Clc1ccc(CNc2ccnc(NCc3cccnc3N3CCCC3)n2)c(Cl)c1 :: -5
6. O=C(Nc1cccc(CN2CCN(C(=O)c3cccc(Cl)c3)CC2)c1)c1ccco1 :: 2
7. Cc1cccc2[nH]c(-c3cccc(-c4ccc(CN5CCCC5CN)cc4)c3)nc12 (centres undefined) :: 3
8. COC(=O)c1cccc(CNCc2ccc(-c3ccc(-c4nc5c(C)cccc5[nH]4)cc3)cc2)c1 :: 3
9. Cc1cc(C)cc(Oc2c(C(F)(F)F)oc3c(CN4CC(C)OC(C)C4)c(O)ccc3c2=O)c1 (centres undefined) :: 1

###

Consider the following molecules and their measured inhibition readings.
Target: L-lactate dehydrogenase (Plasmodium falciparum (isolate CDC / Honduras))
Test: PfLDH activity inhibition – cell lysate, 3D7 strain, counter-screen for P. falciparum growth inhibition project (AID 2304);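 further: 0% = vehicle and 100% = reference inhibitor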
Settings: P. falciparum 3D7 crude extract, LDH APAD/NBT absorbance; at 2 µM; active compounds read high
Measurement type: inhibition (%)

1) CCCc1cc(N2CCC(c3ccccc3)(N3CCCCC3)CC2)nc(Nc2ccc(OC)cc2)n1 :: 1
2) Cc1cccc(-c2nc3[nH]c(=O)cc(NC(=O)C(C)C)n3n2)c1 :: 0
3) CC(C)(C)NC(=O)c1ccc(Oc2ccc(OC(F)(F)F)cc2)c(NC(=O)C(C)(C)C)c1 :: 3
4) CCC(C)NS(=O)(=O)c1ccc2nc(Nc3cccc(SC)c3)n(C(C)C(C)C)c2c1 (stereo not given) :: 2
5) Clc1cccc(C=NNc2nc(Nc3ccccc3)nc(Nc3ccccc3)n2)c1 :: -4
6) CCOc1cc(C(=O)NCCN(C(C)C)C(C)C)ccc1-c1nc2ccc(Cl)cc2[nH]1 :: 2
7) O=S(=O)(c1ccc(Cl)cc1Cl)N1CCCCC(c2ccc(C(F)(F)F)cc2)=N1 :: 4
8) CC(C)c1cc(Oc2c(I)cc(CCNCc3ccccc3)cc2I)ccc1O :: 4
9) Cc1nc(N)nc(N)c1OCc1cccc2ccccc12 :: -1
10) O=C(c1ccc(F)cc1)N1CCOC(CCN2CCC(c3ccccc3)CC2)(c2ccc(Cl)c(Cl)c2)C1 (stereo not given) :: -6
11) Cc1ccnc(Nc2nc(-c3ccccn3)cs2)c1 :: -4
12) COc1ccc2ncn(-c3ccc(C(N)=O)c(OCc4ccccc4C(F)(F)F)c3)c2c1 :: 3
13) COc1ccc(CNCc2ccsc2)cc1-c1ccc(OC)c(S(=O)(=O)NCCN2CCCC2)c1 :: 0
14) COc1cccc(-c2nn(C)c3sc(C(=O)Nc4cccnc4)cc23)c1 :: -2
15) O=C(Nc1ccc(Cl)cc1)Nc1ccc(-c2csc(-c3nc4ccccc4[nH]3)c2)cc1 :: -4
16) COc1ccc(CCNCC(O)COc2nccc3c(S(=O)(=O)N4CCCNCC4)cccc23)cc1OC (stereo not given) :: -6
17) CNC(=O)Cc1ccc(C(=O)Nc2cccc(-c3csc(-c4nc5ccccc5[nH]4)c3)c2)cc1 :: 4
18) CN1CCC(N2CCN(Cc3cccc(-c4cccc(-c5nc6ccccc6[nH]5)c4)c3)CC2)CC1 :: -1
19) O=C(Nc1ccc(Cl)cc1)N[C@H]1CCN(CCCCCNC(=O)[C@@H]2C[C@H]2c2ccc(Cl)c(Cl)c2)C1 :: 1
20) O=C(Nc1ccc([N+](=O)[O-])cc1O)Nc1ccccc1Oc1ccccc1 :: -8
